Target: T1, his-tagged human PVRIG (h-PVRIG-his) recombinant protein (human, UniProt Q6DKI7 41-171, limits assumed)
T1 construct: bought from Acrobiosystems; also called Human PVRIG-his; human PVRIG recombinant protein; not shown: his tag
T1 sequence (looked up): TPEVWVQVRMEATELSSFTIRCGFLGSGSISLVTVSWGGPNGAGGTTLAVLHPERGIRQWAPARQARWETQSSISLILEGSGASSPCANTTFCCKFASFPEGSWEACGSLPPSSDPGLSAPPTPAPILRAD
Assay: BLI (Fortebio), antibody on Protein A sensor, 1:1 fit
Give measured Kd for each item. Keep answers brief.
Numbers only, in nM.

Some binders with recorded Kd:
Recorded Kd of anti-PVRIG antibody 30 (antibody, human IgG4 S228P, F234A L235A, V domains shown, no light chain) VH: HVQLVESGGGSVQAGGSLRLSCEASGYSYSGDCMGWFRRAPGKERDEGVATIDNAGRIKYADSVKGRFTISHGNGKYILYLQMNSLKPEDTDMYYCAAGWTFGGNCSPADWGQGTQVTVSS , please. 0.723

Data request, read-out Kd, for anti-PVRIG antibody 151 (antibody, human IgG4 S228P, F234A L235A, V domains shown, no light chain) VH: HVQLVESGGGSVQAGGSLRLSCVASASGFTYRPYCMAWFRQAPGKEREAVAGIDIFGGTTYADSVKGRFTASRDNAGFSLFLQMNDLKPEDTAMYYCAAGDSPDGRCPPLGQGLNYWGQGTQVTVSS 0.2

May I ask what Kd has been recorded for anti-PVRIG antibody 38 (antibody, human IgG4 S228P, F234A L235A, V domains shown, no light chain) VH: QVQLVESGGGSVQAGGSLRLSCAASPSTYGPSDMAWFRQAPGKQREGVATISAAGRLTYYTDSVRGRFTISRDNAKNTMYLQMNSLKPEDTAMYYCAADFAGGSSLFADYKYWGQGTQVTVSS ? 2.17

Fill in: Kd of positive antibody Tab5 (antibody, human IgG4 S228P, kappa, F234A L235A, V domains shown, Variable regions of CPA.7.021 (WO2016134333A1) on human IgG4 (S228P/F234A/L235A/K447A) and human kappa constant regions) VH: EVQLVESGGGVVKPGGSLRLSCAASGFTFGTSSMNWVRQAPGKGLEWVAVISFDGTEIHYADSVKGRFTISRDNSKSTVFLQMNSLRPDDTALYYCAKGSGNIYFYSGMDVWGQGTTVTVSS VL: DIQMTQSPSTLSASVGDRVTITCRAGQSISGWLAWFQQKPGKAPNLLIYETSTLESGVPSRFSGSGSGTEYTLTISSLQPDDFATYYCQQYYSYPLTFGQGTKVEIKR is ___ 0.219

// switching to the query binder
Report Kd for anti-PVRIG antibody 39 (antibody, human IgG4 S228P, F234A L235A, V domains shown, no light chain) VH: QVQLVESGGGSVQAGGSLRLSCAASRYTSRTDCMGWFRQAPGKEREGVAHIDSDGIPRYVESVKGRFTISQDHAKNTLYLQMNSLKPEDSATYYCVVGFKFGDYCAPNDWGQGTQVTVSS please. 0.696
